test.description: chemical genetic growth profiling, strain panel (AID 1159580);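 further: tested at 20 µM; growth read once vehicle control cultures reached saturation at 30 °C; 1 = growth at the plate median or of vehicle wells; lower values mean less growth of the strain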
condition.notes: S. cerevisiae deletion strains, growth OD, locus YJL129C, strain trk1, stronger effect = lower value
Hit rate of the full screen: of about 5,500 compounds, about 2,000 (36%) were called active. Inconclusive results (about 18%) are left out. Some of the results follow.
Quick reference: normalized growth of the listed items.
Answer with the value's number alone.

CCCCS(=N)(=O)CCC(N)C(=O)O (stereo not given)    0.986

Query string: Entry O=c1cc(-c2ccc(O)cc2)oc2cc(O)ccc12 has what normalized growth?
Result string: 0.915

====

test.description: chemical genetic growth profiling, strain panel (AID 1159580);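 further: tested at 20 µM; growth read once vehicle control cultures reached saturation at 30 °C; 1 = growth at the plate median or of vehicle wells; lower values mean less growth of the strain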
condition.notes: S. cerevisiae deletion strains, growth OD, locus YNL250W, strain rad50, stronger effect = lower value
Out of some 5,500 compounds screened, about 2,000 (36%) were called active. Roughly 18% stayed inconclusive and do not appear here. Some of the results follow. Where a SMILES comes first, the peptide text is derived from it.
Documented normalized growth across a set of molecules
Form: value (number only, do not type unit).

Answered examples (3):
CC1=C2[C@H]3OC(=O)[C@@H](C)[C@@H]3CC[C@@]2(C)C=CC1=O    1.04
NCCCCC(N)C(=O)NC(Cc1ccc(O)cc1)C(=O)NC(CCCCN)C(=O)O (stereo not drawn) (H-Lys-Tyr-Lys-OH; configuration not given here)    0.981
CCOC(=O)[C@H](CCc1ccccc1)N[C@@H](C)C(=O)N1Cc2ccccc2C[C@H]1C(=O)O    1.01

Query string: I would be grateful if you could share the reported normalized growth for CC1(C)C(=O)C=C[C@@]2(C)C1CC(=O)[C@@]1(C)C3=CC(=O)O[C@@H](c4ccoc4)[C@]3(C)CCC12 (stereo partly specified) .
Result string: 1

Query string: What value of normalized growth has been reported for the following molecule? N[C@@H]1[C@@H](O)[C@H](O)[C@@H](CO)O[C@H]1O
Result string: 1.05

Query string: What does the data say about its normalized growth? Entry: CC12CC3CC(C)(C1)CC(N)(C3)C2
Result string: 1.01

====

test.description: chemical genetic growth profiling, strain panel (AID 1159580);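 further: tested at 20 µM; growth read once vehicle control cultures reached saturation at 30 °C; 1 = growth at the plate median or of vehicle wells; lower values mean less growth of the strain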
condition.notes: S. cerevisiae deletion strains, growth OD, locus YHR094C, strain hxt1, stronger effect = lower value
The whole screen tested about 5,500 compounds, of which about 2,000 (36%) were called active. Inconclusive results (about 18%) are left out. The list shows a part of the results.
normalized growth reference

Reference set, count: 4
CCC(=O)c1ccc2c(c1)N(CC(C)N(C)C)c1ccccc1S2 (stereo not given)    1.02 (inactive)
CC(CCC(=O)O)[C@H]1CCC2C3C[C@H](O)[C@@H]4C[C@H](O)CC[C@]4(C)C3CC[C@@]21C (stereo not given in full)    1.02 (inactive)
CC(CCC(=O)O)[C@H]1CCC2C3CC[C@@H]4C[C@H](O)CC[C@]4(C)C3C[C@H](O)[C@@]21C (stereo not given in full)    0.991 (inactive)
COc1c(Cl)ccc(Cl)c1C(=O)O    1.01 (inactive)

Query string: Sample CCN(CC)C(C)CN1c2ccccc2Sc2ccccc21 (stereo not given) — what was its normalized growth?
Result string: 0.95 (inactive)

====

test.description: chemical genetic growth profiling, strain panel (AID 1159580);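 further: tested at 20 µM; growth read once vehicle control cultures reached saturation at 30 °C; 1 = growth at the plate median or of vehicle wells; lower values mean less growth of the strain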
condition.notes: S. cerevisiae deletion strains, growth OD, locus YDR334W, strain swr1
The campaign covered roughly 5,500 compounds. About 2,000 (36%) were called active. Not shown: some 18% with an inconclusive outcome. Rule as the data show it: active = normalized growth mostly below about 0.91 (no sharp cut-off); inconclusive = no clear call, values can overlap the other calls; inactive = mostly above about 0.92. Some of the results follow.
Tick one outcome: 1 (yes) = active, 0 (no) = inactive

CCN(CC)CCOC(=O)C(c1ccccc1)c1ccccc1    0 (no)
C=Cc1c(C)c2[n-]c1=Cc1[n-]c(c(CC)c1C)C=c1[n-]c3c(c1C)C(=O)C(C(=O)[O-])C=3c1[n-]c(c(C)c1CCC(=O)[O-])C=2.[Cu] (stereo unspecified)    1 (yes)

Query string: Assay result, entry Cc1cc(=O)oc2c(O)c(O)ccc12 — outcome?
Result string: 0 (no)

Query string: Would you mind telling me which call this test gave CC(CN1c2ccccc2Sc2ccccc21)N(C)C (stereo unspecified) ?
Result string: 0 (no)

Query string: Query: recorded result category for N[C@@H]1[C@@H](O)[C@H](O)[C@@H](CO)O[C@H]1O in this test
Result string: 0 (no)

Query string: Could you please tell me the result logged for CO[C@]12C[C@@H](COC(=O)c3cncc(Br)c3)CN(C)[C@@H]1Cc1cn(C)c3cccc2c13 in this assay?
Result string: 0 (no)

Query string: Which outcome was entered for the molecule CCCC(C(=O)OCCN(CC)CC)(c1ccccc1)c1ccccc1 in this test?
Result string: 0 (no)

Query string: Recorded call for CSc1ccc2c(c1)N(CCC1CCCCN1C)c1ccccc1S2 (stereo unspecified) ?
Result string: 0 (no)

Query string: Test call, this molecule: Nc1cc(C(Cl)=C(Cl)Cl)c(S(N)(=O)=O)cc1S(N)(=O)=O
Result string: 0 (no)

Query string: Outcome? O=c1cc(-c2ccccc2)oc2cccc(O)c12
Result string: 0 (no)

Query string: Which outcome did this test record for the molecule COC(=O)CCC(C)[C@H]1CCC2C3C(C[C@H](O)[C@@]21C)[C@@]1(C)CC[C@@H](O)C[C@H]1C[C@H]3O (stereo partly specified) ?
Result string: 0 (no)

Query string: What is the recorded call for this molecule in the test? CC(CN(C)C)CN1c2ccccc2CCc2ccccc21 (stereo unspecified)
Result string: 0 (no)

Query string: What did this assay record as the result for O=c1cc(-c2ccccc2)oc2cc(O)c(O)c(O)c12 ?
Result string: 1 (yes)

Query string: Outcome? CN(C)N=Nc1nc[nH]c1C(N)=O
Result string: 0 (no)

Query string: For CC(CCC(=O)O)[C@H]1CCC2C3CC[C@@H]4C[C@H](O)CC[C@]4(C)C3C[C@H](O)[C@@]21C (stereo partly specified) , what call appears in the results of this test?
Result string: 0 (no)

Query string: Query: recorded result category for CC(C)CCCC(C)C1CCC2C3CC[C@H]4CCCC[C@]4(C)C3CC[C@]12C (stereo partly specified) in this test
Result string: 0 (no)

Query string: Query: recorded result category for CN(C(=O)CN(CCO)CC(=O)N(C)C(C)(C)Cc1ccccc1)C(C)(C)Cc1ccccc1 in this test
Result string: 0 (no)

Query string: // outcome(item) with item = NC(=O)c1ncn(C2O[C@H](CO)[C@@H](O)[C@H]2O)c1N (stereo partly specified)
Result string: 0 (no)

Query string: Could you kindly confirm the outcome this assay logged for CCN(CC)C(C)CN1c2ccccc2Sc2ccccc21 (stereo unspecified) ?
Result string: 0 (no)

Query string: Which result was noted for this molecule in the test: CCOC(=O)[C@H](CCc1ccccc1)N[C@@H](C)C(=O)N1Cc2ccccc2C[C@H]1C(=O)O
Result string: 0 (no)

Query string: Hi, do you know how NS(=O)(=O)c1cc2c(cc1Cl)NC(C1CC3C=CC1C3)NS2(=O)=O (stereo unspecified) came out in this test?
Result string: 0 (no)

Every entry's value here was drawn from PubChem BioAssay AID1159580.
